System: Kleb. pneumo. SK 4200
Experiment description: In vivo ED50 in infected mice, subcutaneous
Condition set: Mus musculus, sc
Endpoint name: ED50 (mg/kg)
Just the number in mg/kg, nothing appended.

Example entries and their recorded answers appear below.
Q: Answer with ED50 of CCn1c(SCC2=C(C(=O)O)N3C(=O)C(NC(=O)C(N)c4ccccc4)C3SC2)n[nH]c1=O (stereo not drawn) measured for Kleb. pneumo. SK 4200.
Ans: 92

Q: Answer with ED50 of O=C(O)C1=C(CSc2n[nH]c(=S)s2)CSC2C(NC(=O)C(O)c3ccccc3)C(=O)N12 (stereo not drawn) measured for Kleb. pneumo. SK 4200.
Ans: 64

Q: Answer with ED50 of CC1=C(C(=O)O)N2C(=O)[C@@H](NC(=O)[C@H](N)c3ccccc3)[C@H]2SC1 [S-II, cephalexin, reference compound] measured for Kleb. pneumo. SK 4200.
Ans: 25

Q: Answer with ED50 of Cn1c(SCC2=C(C(=O)O)N3C(=O)C(NC(=O)C(O)c4ccccc4)C3SC2)n[nH]c1=O (stereo not drawn) measured for Kleb. pneumo. SK 4200.
Ans: 21

Q: Answer with ED50 of O=C(Cc1cccs1)N[C@@H]1C(=O)N2C(C(=O)[O-])=C(C[n+]3ccccc3)CS[C@H]12 [S-I, cephaloridine, reference compound] measured for Kleb. pneumo. SK 4200.
Ans: 7.6

Others:
Q: Answer with ED50 of NC(C(=O)NC1C(=O)N2C(C(=O)O)=C(CSc3n[nH]c(=O)[nH]3)CSC12)c1ccc(O)cc1 (stereo not drawn) measured for Kleb. pneumo. SK 4200.
Ans: 2.8

Q: Answer with ED50 of Cn1c(SCC2=C(C(=O)O)N3C(=O)C(NC(=O)C(N)c4ccccc4)C3SC2)n[nH]c1=O (stereo not drawn) measured for Kleb. pneumo. SK 4200.
Ans: 11.5

Q: Answer with ED50 of NC(C(=O)NC1C(=O)N2C(C(=O)O)=C(CSc3n[nH]c(=O)[nH]3)CSC12)c1ccccc1 (stereo not drawn) measured for Kleb. pneumo. SK 4200.
Ans: 7

Q: Answer with ED50 of O=C(O)C1=C(CSc2n[nH]c(=O)[nH]2)CSC2C(NC(=O)C(O)c3ccccc3)C(=O)N12 (stereo not drawn) measured for Kleb. pneumo. SK 4200.
Ans: 8.7

###

A set of compounds tested on Staph. aurcus villaluz, with measured MIC:
Just the number in µg/mL, nothing appended.

Q: Quickly give me recorded MIC for O=C(O)C1=C(CSc2n[nH]c(=O)[nH]2)CSC2C(NC(=O)C(O)c3ccccc3)C(=O)N12 (stereo not drawn) [V]
Ans: 25

Q: Quickly give me recorded MIC for Cn1c(SCC2=C(C(=O)O)N3C(=O)C(NC(=O)C(O)c4ccccc4)C3SC2)n[nH]c1=O (stereo not drawn) [VI]
Ans: 12.5

Others:
Q: Quickly give me recorded MIC for CC1=C(C(=O)O)N2C(=O)[C@@H](NC(=O)[C@H](N)c3ccccc3)[C@H]2SC1 [S-II, cephalexin, reference compound]
Ans: 50
